# credit: BindingDB's records for patent US20250188037

Experimental System: Somatostatin receptor type 4 (Homo sapiens, UniProt P31391)
Sequence (P31391 whole entry): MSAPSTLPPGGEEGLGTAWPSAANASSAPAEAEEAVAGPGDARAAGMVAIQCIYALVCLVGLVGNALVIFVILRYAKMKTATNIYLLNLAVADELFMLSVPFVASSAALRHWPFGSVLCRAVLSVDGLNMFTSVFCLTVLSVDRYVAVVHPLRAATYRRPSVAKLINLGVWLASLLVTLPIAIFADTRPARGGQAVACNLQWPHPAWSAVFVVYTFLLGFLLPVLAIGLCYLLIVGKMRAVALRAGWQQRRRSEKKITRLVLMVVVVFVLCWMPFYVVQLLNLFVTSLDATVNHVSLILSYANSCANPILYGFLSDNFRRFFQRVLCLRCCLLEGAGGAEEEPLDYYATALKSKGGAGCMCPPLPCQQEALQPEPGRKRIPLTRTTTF

{"Compound Structure String": "O=C(N[C@H]1CCNC[C@@H]1F)C1(Cc2cccc(F)c2)CC1", "IC50 (nM)": 87.1}
